TESTED SYSTEM: T1, L-selectin (LS-Rg) (Homo sapiens, UniProt P14151 P14151:39-332)
T1 chain: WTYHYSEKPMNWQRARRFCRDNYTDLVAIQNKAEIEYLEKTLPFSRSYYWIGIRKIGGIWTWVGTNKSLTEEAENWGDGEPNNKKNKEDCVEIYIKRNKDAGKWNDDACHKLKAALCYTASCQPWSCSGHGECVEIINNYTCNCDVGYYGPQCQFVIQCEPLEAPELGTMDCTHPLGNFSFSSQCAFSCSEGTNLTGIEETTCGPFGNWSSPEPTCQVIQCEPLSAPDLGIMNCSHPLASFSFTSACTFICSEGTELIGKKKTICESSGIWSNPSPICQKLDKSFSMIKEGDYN
MEASUREMENT PROTOCOL: filter; room temp; 380 pM at 37 C; table prints SEQ 155, Table XII and text give 133
PROTOCOL CONDITIONS: tags: human IgG2 Fc fusion (provided by A. Varki); label: 32P; hairpin
TEST READOUT: Kd
Answer shape: numeric part, then the unit.

Request: I am curious: what Kd value has been reported for 208 (ssDNA) DNA: CTACCTACGATCTGACTAGCCACGTTTCAAGGGGTTACACGAAACGATTCACTCCTTGGCGCTTACTCTCATGTAGTTCC ?
Result: 0.11 nM

These measurements were taken from patent US6001988.
